# SYSTEM TESTED: T1, VEGFR-3-Fc (UniProt P35916 25-328)
# T1 construct: domain: first three Ig domains; conditioned supernatant of 293T cells; also called VEGFR-3-Fc fusion protein; not shown: Fc fragment of the pIg vector
# T1 sequence (looked up): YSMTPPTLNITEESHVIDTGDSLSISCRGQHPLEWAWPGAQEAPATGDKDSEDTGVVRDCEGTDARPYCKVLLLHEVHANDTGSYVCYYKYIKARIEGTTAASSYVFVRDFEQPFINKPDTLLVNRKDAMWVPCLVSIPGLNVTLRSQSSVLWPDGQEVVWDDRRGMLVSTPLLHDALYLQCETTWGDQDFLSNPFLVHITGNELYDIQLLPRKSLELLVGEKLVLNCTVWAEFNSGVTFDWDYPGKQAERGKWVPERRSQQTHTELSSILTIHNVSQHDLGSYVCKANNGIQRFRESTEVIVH
# MEASUREMENT DESCRIPTION: receptor-Fc IP
MEASURED ENDPOINT: binding result

## Input // binding result lookup, key: 73-5 (ligand) GQNHHEVVKSIDNEWRKTQCMPREVCIDVGKEYPDEIEYIFKPPCVSVYRCGGCCNDEGLECVPTEESNITMQIMRIKPHQGQHIGEMSFANHTSCRCMSKLD
## Output no binding

## Input // binding result lookup, key: 14-9 (ligand, clone entry) GQNHHEVVKFMDVYQRSYCHPIETLVDIFQEFGVATNTFFKPSCVPLMRCGGCCNDEGLECVPTEESNITMQIMRITVPLSQGPKPVTISFLQHNKCECRPKKDL
## Output binds

## Input // binding result lookup, key: 41-7 (ligand) AHYNTEILKFMDVYQRSYCHPREVCIDVGKEYPDEIEYIFKPSCVPLMRCGGCCNSEGLQCVPTEESNITMQIMRIKPHQGQHIGEMSFANHTSCRCMSKLD
## Output no binding

## Input // binding result lookup, key: 81-15 (ligand) AHYNTEILKFMDVYQRSYCHPIETLVDIFQEYPDEIEYIFKPSCVPLMRCGGCCNSEGLQCVPTEESNITMQIMRITVPLSQGPKPVTISFANHTSCRCMSKLD
## Output no binding
